For each record, write down the corresponding Kd.
# STUDY TARGET: HLA-A*68:02
# PROCEDURE SUMMARY: IEDB peptide-MHC binding, purified MHC/direct/fluorescence; filed as Kd, often an IC50 or EC50 that approximates it; bounds were set here for any values at or beyond the usual limits of such assays
# STUDY CONDITIONS: source organism: Campylobacter jejuni RM1221

AKYEICLEK ... ≥ 20 µM

We next turn to a different sequence, shown below.
Note to self: Kd recorded for `VQKVNPAPK` was ≥ 20 µM

###

# STUDY TARGET: HLA-B*27:05
# PROCEDURE SUMMARY: IEDB peptide-MHC binding, purified MHC/direct/fluorescence; filed as Kd, often an IC50 or EC50 that approximates it; bounds were set here for any values at or beyond the usual limits of such assays
# STUDY CONDITIONS: source organism: Vibrio vulnificus
QUANTITY: Kd

Note to self: Kd recorded for `QSPQPVRVK` was ≥ 20 µM

###

# STUDY TARGET: HLA-A*69:01
# PROCEDURE SUMMARY: IEDB peptide-MHC binding, purified MHC/direct/fluorescence; filed as Kd, often an IC50 or EC50 that approximates it; bounds were set here for any values at or beyond the usual limits of such assays
# STUDY CONDITIONS: source organism: Cowpox virus
pKd: −log10 of the molar value.
QUANTITY: pKd

Note to self: pKd recorded for `YHRFGLYRL` was ≤ 4.70

###

# STUDY TARGET: HLA-B*15:01
# PROCEDURE SUMMARY: IEDB peptide-MHC binding, purified MHC/competitive/fluorescence; filed as Kd, often an IC50 or EC50 that approximates it; bounds were set here for any values at or beyond the usual limits of such assays
# STUDY CONDITIONS: source organism: Yersinia pestis
QUANTITY: Kd (nM)
Give bare numbers, in nM.

Note to self: Kd recorded for `LEVNNPTPF` was 98

###

# STUDY TARGET: HLA-B*58:01
# PROCEDURE SUMMARY: IEDB peptide-MHC binding, purified MHC/direct/fluorescence; filed as Kd, often an IC50 or EC50 that approximates it; bounds were set here for any values at or beyond the usual limits of such assays
# STUDY CONDITIONS: source organism: Entamoeba histolytica
QUANTITY: Kd

Record for `DFGYATMAK` under target or system HLA-B*58:01: Kd reported as ≥ 20 µM

###

# STUDY TARGET: HLA-B*46:01
# PROCEDURE SUMMARY: IEDB peptide-MHC binding, purified MHC/competitive/fluorescence; filed as Kd, often an IC50 or EC50 that approximates it; bounds were set here for any values at or beyond the usual limits of such assays
# STUDY CONDITIONS: source organism: Bacillus anthracis str. 'Ames Ancestor'
QUANTITY: Kd

Record for `MTQNISNDK` under target or system HLA-B*46:01: Kd reported as ≥ 20 µM

###

# STUDY TARGET: HLA-C*03:03
# PROCEDURE SUMMARY: IEDB peptide-MHC binding, purified MHC/direct/fluorescence; filed as Kd, often an IC50 or EC50 that approximates it; bounds were set here for any values at or beyond the usual limits of such assays
# STUDY CONDITIONS: source organism: Mammarenavirus machupoense
pKd: −log10 of the molar value.
QUANTITY: pKd

Note to self: pKd recorded for `AAVKAGASI` was ≥ 9.00

Recorded values, source the Immune Epitope Database (IEDB).
